// provenance: patent US20070020327A1

- assay target: HLA-A*0201 (human)
- protocol summary: inhibition of 125I probe peptide binding to purified HLA, gel filtration; ratio = IC50 standard/IC50 test
result type: binding affinity ratio

{"columns": ["binder", "binding affinity ratio"],
 "data": [
  ["AQVHPQKVT (modifications not checked) [… (PSA, position 181)]", 0.0002],
  ["ATARRPRWL (modifications not checked) [… (PSM, position 13)]", 0.0002],
  ["AASLSLGFL (modifications not checked) [… (PAP, position 11)]", 0.0002]
]}

a: AAHCIRNKSV (modifications not checked) [… (PSA, position 59)]
b: ALPEKPAVYT (modifications not checked) [… (Kallikrein, position 235)]
# input Which of the two items, a and b , has the greater recorded binding affinity ratio? Your choice should be expressed through its label.
# output b
